Values from PubChem BioAssay

assay: VP16 transactivation reporter inhibitors, counter-screen for LRH-1 inverse agonist project, cell-based, luminescence, high throughput (AID 651615); settings: Gal4-VP16 luciferase reporter cells, at 3.6 µM
Active and inactive are the calls of the source. No stated cut-off is given here; in the data, active means inhibition above about 33%; inactive means the rest.
Please answer using one outcome listed in 1 (yes) = active, 0 (no) = inactive

Query string: Recorded test outcome, item Cc1ccc(C)c(NC(=O)CSc2nnc(-c3ccccc3)n2N)c1
Result string: 0 (no)

More entries:
Query string: Recorded test outcome, item COc1ccc(NC(=O)/C(Cl)=C(/Cl)S(=O)Cc2ccc(Cl)cc2)cn1 (stereo not drawn)
Result string: 1 (yes)

Query string: Recorded test outcome, item CCCC(=O)Nc1sc2c(c1C(=O)Nc1ccccn1)CCCC2
Result string: 0 (no)

Query string: Recorded test outcome, item N=C1C=CC(=C(c2ccc(N)cc2)c2ccc(N)cc2)C=C1
Result string: 1 (yes)

Query string: Recorded test outcome, item Cc1cc(C)nc(SCC(=O)Nc2ccc(N3CCOCC3)c(Cl)c2)n1
Result string: 1 (yes)

Query string: Recorded test outcome, item C=C1C(=O)c2sccc2C(c2ccc(OC)c(OC)c2)C1COC(C)=O (stereo not drawn)
Result string: 1 (yes)

Query string: Recorded test outcome, item Cc1cc(C)c2c(NC(=O)CCl)nn(C)c2n1
Result string: 0 (no)

====

target: Nuclear receptor subfamily 5 group A member 2 (Homo sapiens); assay: LRH-1 (NR5A2) inverse agonists, retest, confirmation, cell-based, luminescence (AID 651613); settings: cell-based LRH-1 luciferase reporter, inverse agonism; at 3.6 µM; hits give high values;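 further: HEK293T cells co-transfected with LRH-1 and StAR promoter luciferase reporter; 0% = vehicle wells and 100% = parental cells lacking receptor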
Each entry falls into one class according to its inhibition; the ranges are 0 (below 50%), 1 (50% to below 60%), 2 (60% or more)

Worked examples follow.
Query string: Which band does Cc1ccc(OCCC(=O)OCC(=O)Nc2ccc(N3CCOCC3)cc2)cc1 fall in?
Result string: 1

Query string: Which band does CCN(CC)C(=O)CSc1nc2ccc(NC(=O)CSc3nccn3C)cc2s1 fall in?
Result string: 0

Query string: Which band does Cc1ccccc1NC(=S)NCc1ccc2[nH]c3c(c2c1)CCCC3 fall in?
Result string: 0

Query string: Which band does Cc1ccc(Oc2ccc(C(=O)NCc3ccncc3)cc2)cc1 fall in?
Result string: 2

Query string: Which band does C=C1C(=O)[C@]23C[C@H]1CCC2[C@@]1(C)C(C[C@@H]3O)[C@](C)(C(=O)OC)CC[C@@H]1OC(C)=O (some centres not stated) fall in?
Result string: 2

More entries:
Query string: Which band does CCN(CC)CCn1c2ccccc2c2cnc(N)c(C#N)c21 fall in?
Result string: 2

Query string: Which band does CC(=O)Nc1cccc(-c2cc(NC=O)c3ncc(-c4cccc(C(C)=O)c4)n3c2)c1 fall in?
Result string: 1

Query string: Which band does CCN1/C(=C/c2ccc3ccccc3[n+]2CC)C=Cc2ccccc21 fall in?
Result string: 2

Query string: Which band does Cc1nn(Cc2ccc(C(=O)Nc3nccs3)cc2)c(C)c1Cl fall in?
Result string: 2

Query string: Which band does O=C(CN1C(=O)c2ccccc2S1(=O)=O)c1ccc2c(c1)OCCCO2 fall in?
Result string: 2

Query string: Which band does CCCc1cc(=O)oc2c(C)c(OCC(=O)NCCN3CCOCC3)ccc12 fall in?
Result string: 0

====

system: transactivating tegument protein VP16 (Human herpesvirus 1), Gal4-VP16 luciferase reporter; assay: VP16 transactivation inhibitors, counter-screen for SRC3 inhibitor project, cell-based, luminescence, high throughput (AID 588794); details: mammalian cells, VP16-driven luciferase reporter luminescence; at 3.6 µM; hits give high values
The source made the active and inactive calls. No stated cut-off is given here; in the data, active means inhibition above about 30%; inactive means the rest.
property label: inhibition

Query string: Which inhibition is reported for this compound? O=C(Cc1ccccc1)NNC(=O)Nc1cccc(Cl)c1
Result string: -0.2% (inactive)

Query string: Which inhibition is reported for this compound? O=C(NC(=S)NNC(=O)c1ccccc1O)c1ccc(F)cc1
Result string: 9.84% (inactive)

Query string: Which inhibition is reported for this compound? Cc1ccc(C)c(N2CCN(C(=O)C34CC5CC(C3)CC(n3nnc(C)n3)(C5)C4)CC2)c1
Result string: 29.6% (active)

Query string: Which inhibition is reported for this compound? O=C(Nc1cccc(S(=O)(=O)Nc2ccccc2Cl)c1)c1ccc(Cl)nc1
Result string: 27.7% (inactive)

Query string: Which inhibition is reported for this compound? NC(=Nc1nc(-c2ccccn2)cc2ccccc12)c1ccccn1
Result string: 47.7% (active)

More entries:
Query string: Which inhibition is reported for this compound? CC(=O)Nc1ccc(OCC(O)Cn2c3ccccc3c3ccccc32)c(C)c1 (stereo unspecified)
Result string: -0.54% (inactive)

====

target: Oxysterols receptor LXR-beta (Homo sapiens); experiment: LXR agonists, Gal4 luciferase reporter, confirmation, counter-screen for hgDAF-12 agonist project, cell-based, luminescence, HEK293, H. glycines campaign (AID 743051); settings: 24 h, at 6.8 µM, hits give high values
The other results are listed elsewhere or left out.
Label F if activation falls below 0.7%; label T in every other case.

Worked examples follow.
Query string: # check: activation of Cc1ccc(NC(=O)c2ccco2)cc1 is greater than or equal to 0.7%
Result string: F

Query string: # check: activation of Clc1ccc(Nc2nc(-c3cccs3)cs2)nc1 is greater than or equal to 0.7%
Result string: F

Query string: # check: activation of O=C(NCCc1ccc(F)cc1)c1ccc2nccnc2c1 is greater than or equal to 0.7%
Result string: T

Query string: # check: activation of COc1ccc(C2=NN(C(=O)c3ccccc3C(=O)O)C(c3ccccc3O)C2)cc1 (configuration not stated) is greater than or equal to 0.7%
Result string: F

Query string: # check: activation of O=C(Nc1ccccc1)Nc1nc2ccccc2s1 is greater than or equal to 0.7%
Result string: T

More entries:
Query string: # check: activation of COc1ccc(-c2cn3cccnc3n2)cc1 is greater than or equal to 0.7%
Result string: F

Query string: # check: activation of COc1ccc(CNC(=O)COc2ccccc2C(=O)c2cnn(-c3ccccc3)c2)cc1OC is greater than or equal to 0.7%
Result string: F

====

biological target: Nuclear receptor coactivator 2 (Homo sapiens) (UniProt Q15596); test: SRC2 coactivator transcriptional activity inhibitors, confirmation, cell-based, luminescence, HEK293, triplicate (AID 652008); conditions: HEK293 GAL4-SRC2 luciferase reporter, at 8.9 µM;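 further: 0% = DMSO-treated cells and 100% = Gossypol at 36 µM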
Sequence (Q15596 whole entry, looked up, the tested form may be a part): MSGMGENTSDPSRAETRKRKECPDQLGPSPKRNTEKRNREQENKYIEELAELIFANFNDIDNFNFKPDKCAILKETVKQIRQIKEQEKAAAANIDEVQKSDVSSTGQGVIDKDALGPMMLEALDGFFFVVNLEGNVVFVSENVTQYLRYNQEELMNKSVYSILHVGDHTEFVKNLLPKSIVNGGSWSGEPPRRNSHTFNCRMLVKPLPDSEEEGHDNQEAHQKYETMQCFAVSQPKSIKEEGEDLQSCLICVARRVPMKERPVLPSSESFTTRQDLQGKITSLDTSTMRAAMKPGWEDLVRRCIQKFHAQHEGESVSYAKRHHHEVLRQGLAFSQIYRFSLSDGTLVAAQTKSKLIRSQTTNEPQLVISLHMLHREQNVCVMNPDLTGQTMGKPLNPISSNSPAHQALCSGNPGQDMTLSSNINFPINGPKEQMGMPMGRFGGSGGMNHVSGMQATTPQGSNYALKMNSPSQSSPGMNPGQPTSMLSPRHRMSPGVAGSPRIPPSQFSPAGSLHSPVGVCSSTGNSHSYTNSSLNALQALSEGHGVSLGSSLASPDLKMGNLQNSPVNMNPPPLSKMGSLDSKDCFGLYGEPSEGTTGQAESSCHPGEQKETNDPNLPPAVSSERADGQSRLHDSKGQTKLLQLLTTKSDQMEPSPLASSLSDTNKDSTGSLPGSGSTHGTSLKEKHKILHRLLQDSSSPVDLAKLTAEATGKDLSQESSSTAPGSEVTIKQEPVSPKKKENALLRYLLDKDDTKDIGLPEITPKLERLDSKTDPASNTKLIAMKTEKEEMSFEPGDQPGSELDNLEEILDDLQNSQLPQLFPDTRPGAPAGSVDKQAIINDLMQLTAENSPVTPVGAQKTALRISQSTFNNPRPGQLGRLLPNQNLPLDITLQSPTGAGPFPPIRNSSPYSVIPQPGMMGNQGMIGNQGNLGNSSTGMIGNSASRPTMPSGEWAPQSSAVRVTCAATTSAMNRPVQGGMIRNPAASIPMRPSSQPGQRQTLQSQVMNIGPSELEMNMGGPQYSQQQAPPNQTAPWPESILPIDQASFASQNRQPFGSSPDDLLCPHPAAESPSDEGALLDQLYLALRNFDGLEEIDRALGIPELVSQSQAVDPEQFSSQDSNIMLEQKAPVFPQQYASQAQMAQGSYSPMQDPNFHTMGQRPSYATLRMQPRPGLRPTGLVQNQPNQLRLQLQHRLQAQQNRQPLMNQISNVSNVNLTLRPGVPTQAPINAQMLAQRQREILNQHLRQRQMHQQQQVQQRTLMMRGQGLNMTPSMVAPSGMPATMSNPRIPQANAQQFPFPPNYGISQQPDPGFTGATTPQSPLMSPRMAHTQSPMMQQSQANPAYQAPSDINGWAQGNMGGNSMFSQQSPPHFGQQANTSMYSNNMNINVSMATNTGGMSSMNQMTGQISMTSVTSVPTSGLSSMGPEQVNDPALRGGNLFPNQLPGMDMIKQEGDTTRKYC
Active and inactive are the calls of the source.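 The calls were made as follows: active = mean inhibition above 46.5%, the solvent-only control mean plus 3 SD; inactive = the rest.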
Please answer using one outcome listed in active, inactive

Worked examples follow.
Query string: Recorded test outcome, item COc1ccc2nc(NC(=O)C3CCN(S(=O)(=O)c4cccc5nsnc45)CC3)sc2c1
Result string: active

Query string: Recorded test outcome, item Cc1csc2ncnc(N3CCN(C(=O)Nc4ccc(OC(F)(F)F)cc4)CC3)c12
Result string: inactive

Query string: Recorded test outcome, item Cn1c(=O)c(=O)n(C)c2cc(S(=O)(=O)Nc3ccc4c(c3)OCCO4)ccc21
Result string: active

Query string: Recorded test outcome, item Cc1cccc(NC(=O)Nc2ccc(Cl)c(Cl)c2)n1
Result string: inactive

Query string: Recorded test outcome, item Cc1nnc(SCc2nc3sc(C(=O)O)c(C)c3c(=O)[nH]2)s1
Result string: inactive

Query string: Recorded test outcome, item CN1CCN(c2ccc(NC(=O)c3cc(S(N)(=O)=O)ccc3N3CCOCC3)cc2)CC1
Result string: inactive

Query string: Recorded test outcome, item CC1CCc2c(sc3nc(CSc4ncn[nH]4)[nH]c(=O)c23)C1 (stereo not given)
Result string: inactive

Query string: Recorded test outcome, item Cc1cc(=O)c2ccccc2n1Cc1ccccc1
Result string: inactive

Query string: Recorded test outcome, item c1ccc2c(c1)CCN(c1ncnc3c1[nH]c1ccccc13)C2
Result string: inactive

More entries:
Query string: Recorded test outcome, item O=C(O)CCC(=O)Nc1ccc(NC(=O)c2ccc(Cl)cc2Cl)c(Cl)c1
Result string: inactive

====

assay: StAR promoter reporter inhibitors, counter-screen for LRH-1 inverse agonist project, cell-based, luminescence, high throughput (AID 651611); details: StAR promoter luciferase reporter counterscreen, at 3.6 µM
Active and inactive are the calls of the source. Cut-off read from the data, not from the text of the source: active = inhibition above about 28%; inactive = the rest.
Please answer using one outcome listed in YES for active, NO for inactive

Query string: Recorded test outcome, item O=C(COC(=O)c1ccc[n+]([O-])c1)Nc1ccc([N+](=O)[O-])cc1Cl
Result string: NO

More entries:
Query string: Recorded test outcome, item COc1ccc2c(c1)C1C=CCC1C(c1cc3c(cc1Br)OCO3)N2 (stereo not given)
Result string: NO

Query string: Recorded test outcome, item CN(CCC#N)Cc1cc(=O)oc2ccc3ccccc3c12
Result string: NO

Query string: Recorded test outcome, item O=[N+]([O-])c1nn(-c2ccc3c(c2)OCCO3)n(O)c1=Nc1ccccc1
Result string: YES

====

molecular target: COUP transcription factor 2 (Homo sapiens) (UniProt P24468); experiment: NR2F2 transcriptional activity inhibitors, confirmation, cell-based, luciferase reporter, HEK293, triplicate (AID 687008); details: HEK293 NGFI-A luciferase reporter, luminescence; at 8.5 µM; hits give high values;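 further: 100% = cells given the luciferase reporter alone without the COUP-TF2 vector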
Sequence (P24468 whole entry, looked up): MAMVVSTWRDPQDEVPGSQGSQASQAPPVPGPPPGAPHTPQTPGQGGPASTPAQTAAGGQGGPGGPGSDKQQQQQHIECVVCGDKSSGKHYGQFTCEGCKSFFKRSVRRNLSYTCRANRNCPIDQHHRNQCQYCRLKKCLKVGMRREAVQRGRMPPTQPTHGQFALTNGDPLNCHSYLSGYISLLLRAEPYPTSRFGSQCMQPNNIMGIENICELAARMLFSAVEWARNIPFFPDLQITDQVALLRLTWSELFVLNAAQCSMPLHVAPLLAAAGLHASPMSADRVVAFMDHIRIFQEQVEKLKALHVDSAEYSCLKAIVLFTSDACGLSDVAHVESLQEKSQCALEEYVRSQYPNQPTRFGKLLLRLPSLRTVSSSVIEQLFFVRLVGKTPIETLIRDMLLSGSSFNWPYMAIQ
Some of the results follow.
property label: inhibition (%)
Write the value in % as a bare number.

Query string: Request: inhibition, test system COUP transcription factor 2 (Homo sapiens) (UniProt P24468), entry CC[C@@H](C)[C@H](NC(=O)CCc1c(C)c2cc3c4c(oc3c(C)c2oc1=O)CCCC4)C(=O)O
Result string: 24.8

Query string: Request: inhibition, test system COUP transcription factor 2 (Homo sapiens) (UniProt P24468), entry Cc1nc2ccccc2cc1OCc1ccc(F)cc1
Result string: 38

Query string: Request: inhibition, test system COUP transcription factor 2 (Homo sapiens) (UniProt P24468), entry CCN1/C(=C\c2ccc3ccccc3[n+]2CC)Sc2cc(C)ccc21
Result string: 66.5

Query string: Request: inhibition, test system COUP transcription factor 2 (Homo sapiens) (UniProt P24468), entry CCCCCCCCn1c2c(c(=N)c3c1CCC3)CCCC2
Result string: 87.4

Query string: Request: inhibition, test system COUP transcription factor 2 (Homo sapiens) (UniProt P24468), entry OC[C@@H]1CN(Cc2ccncc2)C[C@H](n2cnc3c(N4CCN(c5ccccc5)CC4)ncnc32)O1
Result string: 44.6

Query string: Request: inhibition, test system COUP transcription factor 2 (Homo sapiens) (UniProt P24468), entry Cn1nccc1C(=O)NC1CCCc2c1cnn2-c1ccc(F)cc1F (stereo unspecified)
Result string: 62.2
